Let's look at some compounds and their measured RORγt (LBD) Reporter Assay, % inhibition @ 6 μM.
target: human RORγt LBD fused to the DNA binding domain of the GAL4 protein (Homo sapiens (Human), UniProt P51449); experiment: RORγt (LBD) reporter assay in HEK293T cells; format: cell-based; details: @ 6 μM
Sequence (P51449 258-518): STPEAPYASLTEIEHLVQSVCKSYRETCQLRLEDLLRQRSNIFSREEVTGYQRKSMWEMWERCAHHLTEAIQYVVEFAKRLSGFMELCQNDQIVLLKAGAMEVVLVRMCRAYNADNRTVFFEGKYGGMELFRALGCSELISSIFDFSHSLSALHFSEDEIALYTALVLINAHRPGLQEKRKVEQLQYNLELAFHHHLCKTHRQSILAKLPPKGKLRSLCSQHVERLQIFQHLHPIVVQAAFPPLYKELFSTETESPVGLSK
Response body: numeric value in %, unit text excluded.

A selection of reference data follows.
INSERT INTO results (compound, unit_of_measurement, test_value) VALUES
  ('COc1nc2ccc(C(O)(c3ccc(C(F)(F)F)nc3)c3cncn3C)cc2c(Cl)c1OCc1cccnc1 (single isomer, unassigned) [Example 76c]', '%', '−35'),
  ('COc1nc2ccc(C(O)(c3ccc(C)nc3C)c3cnnn3C)cc2c(Cl)c1CN1CCC(n2cccn2)CC1 (single isomer, unassigned) [Example 105c]', '%', 87);

Could you now look at the following compound, please?
Consider the compound COc1nc2ccc(C(O)(c3ccc(C)nc3C)c3cnnn3C)cc2c(Cl)c1C (single isomer, unassigned) [Example 12c] . State its measured RORγt (LBD) Reporter Assay, % inhibition @ 6 μM.
93

The reported measurements were obtained from patent US10201546B2.
